assay_info: chemical genetic growth profiling, strain panel (AID 1159580);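 note: tested at 20 µM; growth read once vehicle control cultures reached saturation at 30 °C; 1 = growth at the plate median or of vehicle wells; lower values mean less growth of the strain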
condition_context: S. cerevisiae deletion strains, growth OD, locus YNL271C, strain bni1, hits give low values
The whole screen tested about 5,500 compounds, of which about 2,000 (36%) were called active. Another 18% or so got no clear call; they are omitted. This is one part of the list.
So I've got a bunch of compounds here, and I need their normalized growth values.
Keep the answer to the number alone.

Give normalized growth for CCC1(c2ccc(N)cc2)CCC(=O)NC1=O (configuration not stated)
0.995

Annotate the compound S=C=NCc1ccccc1 with its measured normalized growth.
0.0636

State its normalized growth: Cc1ccc(O)cc1
0.994

Name the recorded normalized growth of the item C[N+](C)(C)CCOP(=O)([O-])OP(=O)(O)OC[C@H]1OC(n2ccc(N)nc2=O)[C@H](O)[C@@H]1O (some centres not stated) in your answer.
0.995

For Cc1cc(=O)c2c(O)cc(O)c(C)c2o1 , write its normalized growth.
0.982

# return recorded normalized growth for input Cn1cc[nH]c1=S
0.97

Dear colleague, please send me the reported normalized growth for COc1c2c(c(CC=C(C)C)c3oc(=O)c(-c4ccc(O)cc4)c(O)c13)OC(C)(C)C=C2 when you can.
0.976

Specify normalized growth for Oc1ccc(O)cc1 and stop.
1.05

Please give measured normalized growth of the following entry: CCC1(c2ccccc2)C(=O)NCNC1=O
0.993

Report normalized growth, nothing else, for this compound: NC(N)=Nc1nc(CSCCC(N)=NS(N)(=O)=O)cs1
1.01

Given Cc1c(O)cc(O)c2c(=O)c(-c3ccc(O)cc3)coc12 , respond with its normalized growth.
1.02

Annotate the compound COc1c(CC=C(C)C)c2c(c3oc(=O)c(-c4ccc(O)cc4)c(O)c13)C=CC(C)(C)O2 with its measured normalized growth.
0.998
